- assayed_system: GRIP2_7, Q9C0E4
- Sequence (Q9C0E4 934-1023): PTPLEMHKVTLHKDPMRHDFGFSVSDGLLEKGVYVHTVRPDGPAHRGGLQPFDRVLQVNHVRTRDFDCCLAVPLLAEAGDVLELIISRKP
- protocol_details: holdup assay
- Set-up: key: below the threshold = too weak to quantify, mostly under pKd 3.1 to 4
- condition_info: plain residues with an end cap or a label only (N-terminal biotin on a linker: ado-ado)
measured_parameter: pKd

[[record]]
binder = "IQISELETNV [SLC1A7, O00341]"
result = "below the threshold"

[[record]]
binder = "SQPLLVHDDV [KIT, P10721]"
result = "below the threshold"

[[record]]
binder = "DFKHTKSFII [JAM2, P57087]"
result = 3.88

[[record]]
binder = "SKQFDKNAYV [CLDN10, P78369]"
result = "below the threshold"

